Data credit: patent US6624185B2

Molecular target: UniProt:Q07869
Assay: PPARα reporter cell line assay (stably transfected HEK cells, luciferase readout, three-day test)
Details: agonist activity in stably transfected HEK PPARα reporter cell line, 24 h incubation, luciferase luminescence
pEC50: −log10 of the molar value.
Returns one of condition met or condition not met; condition met when pEC50 is >= 8.

# input Entry Cc1cccc(CC[C@H]2CCC[C@H](OCc3coc(-c4ccc(F)cc4)n3)C2)c1C(=O)O (racemic) [XXIX] : is its pEC50 no less than 8?
# output condition not met

# input Check the entry Cc1cccc(COC2CCCC(OCc3nc(-c4cccc(Cl)c4)oc3C)C2)c1C(=O)O (stereo not drawn) [XXXVI] : does pEC50 equal or exceed 8?
# output condition met

# input Dear colleague, could you confirm whether Cc1cccc(COC2CCCC(OCc3nc(-c4cccc(C#N)c4)oc3C)C2)c1C(=O)O (stereo not drawn) [XLIV] has pEC50 at or above 8?
# output condition met

# input Is pEC50 at least 8? Consider COc1cccc(-c2nc(COC3CCCC(OCc4cccc(C)c4C(=O)O)C3)c(C)o2)c1 (stereo not drawn) [XXXIV]
# output condition met

----------
Molecular target: human PPARα (Homo sapiens, UniProt Q07869)
Sequence (Q07869 1-468): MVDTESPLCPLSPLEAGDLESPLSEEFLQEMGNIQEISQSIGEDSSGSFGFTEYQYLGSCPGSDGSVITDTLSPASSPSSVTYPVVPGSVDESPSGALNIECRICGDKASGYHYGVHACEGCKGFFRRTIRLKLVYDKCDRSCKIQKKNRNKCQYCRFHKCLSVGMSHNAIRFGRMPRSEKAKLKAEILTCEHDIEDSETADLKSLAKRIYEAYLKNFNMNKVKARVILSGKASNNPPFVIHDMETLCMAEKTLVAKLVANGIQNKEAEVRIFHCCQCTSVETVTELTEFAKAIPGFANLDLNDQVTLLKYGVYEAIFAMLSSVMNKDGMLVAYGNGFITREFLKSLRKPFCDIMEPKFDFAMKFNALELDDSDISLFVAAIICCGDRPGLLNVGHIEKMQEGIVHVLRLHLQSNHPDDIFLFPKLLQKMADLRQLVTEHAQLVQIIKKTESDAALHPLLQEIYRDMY
Assay: PPARα reporter cell line assay (stably transfected HEK cells, luciferase readout, three-day test)
Settings: agonist activity in stably transfected HEK PPARα reporter cell line, 24 h incubation, luciferase luminescence
Exercise: for every item that follows, state its recorded pEC50.
API: returns pEC50 as number; meaning -log10 of concentration in mol/L.

# input Name the recorded pEC50 of the molecule listed here: Cc1cccc(-c2nc(COC3CCCC(OCc4cccc(C)c4C(=O)O)C3)c(C)o2)c1 (stereo not shown) [XXXVIII]
# output 9.24

# input Determine from records and report pEC50 for Cc1cccc(COC2CCCC(OCc3nc(-c4cccc(Br)c4)oc3C)C2)c1C(=O)O (stereo not shown) [XXXII]
# output 9.01

# input Identify pEC50 associated with the molecule COc1ccc(-c2nc(COC3CCCC(OCc4cccc(C)c4C(=O)O)C3)c(C)o2)cc1OC (stereo not shown) [XLIII]
# output 9.24

# input Determine its reported pEC50: Cc1ccccc1-c1nc(COC2CCCC(OCc3cccc(C)c3C(=O)O)C2)c(C)o1 (stereo not shown) [XLI]
# output 9.22
